Molecular target: T1, P3028 (VFDEFKPLVEEPQNLIK, SEQ ID NO: 185), His-tagged (human)
T1 construct: Synthetic fragment of human serum albumin (positions 397-413); used in solution as His-tagged peptide PGE73; also called PGE73; not shown: His-tag
T1 peptide: VFDEFKPLVEEPQNLIK
Assay: PEPSCAN ELISA; peptide on chip, His-P3028 added;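 further: peroxidase color development with ABTS and H2O2 substrate, OD405 imaged by CCD camera with image processing and taken as raw values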
Quick list: RAMPO Score per entry.
value-type: RAMPO Score (rampo units)

• KKLDTVFVKLSLFTER [KKLDTVFVKLSLFTER (SEQ ID NO: 319)] = 547
• KKLDTLFVKLSLFTER [KKLDTLFVKLSLFTER (SEQ ID NO: 411)] = 408
• KKLDTFEVKLSLFTER [KKLDTFEVKLSLFTER (SEQ ID NO: 424)] = 381
• KKLDTFFVKLDLFTER [KKLDTFFVKLDLFTER (SEQ ID NO: 474)] = 322
• KKLDTFFVKLALFTER [KKLDTFFVKLALFTER (SEQ ID NO: 477)] = 318
• KKLDTFFVKLSLCTER [KKLDTFFVKLSLCTER (SEQ ID NO: 362)] = 400
• YKLDTFFVKLSLFTER [YKLDTFFVKLSLFTER (SEQ ID NO: 483)] = 315
• KKLDTWFVKLSLFTER [KKLDTWFVKLSLFTER (SEQ ID NO: 444)] = 348
• KYLDTFFVKLSLFTER [KYLDTFFVKLSLFTER (SEQ ID NO: 494)] = 301
• KKLDTFFVKQSLFTER [KKLDTFFVKQSLFTER (SEQ ID NO: 339)] = 470
• KKLDTFFVKLGLFTER [KKLDTFFVKLGLFTER (SEQ ID NO: 99)] = 288
• KMLDTFFVKLSLFTER [KMLDTFFVKLSLFTER (SEQ ID NO: 417)] = 400
• KKLDTFFVKLSLQTER [KKLDTFFVKLSLQTER (SEQ ID NO: 370)] = 1140
• KKTDTFFVKLSLFTER [KKTDTFFVKLSLFTER (SEQ ID NO: 296)] = 451
• KKLTTFFVKLSLFTER [KKLTTFFVKLSLFTER (SEQ ID NO: 413)] = 405

Values were extracted from patent US20180177842A1.
